Items are presented alongside their recorded relative viability.
Test system: NCI-H1651
Assay: relative viability (nuclei count vs DMSO), 5 days (fraction); higher = more cells survive
Conditions: first compound 0.03162 µM
// keep it numeric: no unit symbol after the value

Guide cases for relative viability, answers given:
CCN(CC)CCCCNc1ncc2cc(-c3cc(OC)cc(OC)c3)c(NC(=O)NC(C)(C)C)nc2n1 + CC(=O)c1c(C)c2cnc(Nc3ccc(N4CCNCC4)cn3)nc2n(C2CCCC2)c1=O [Palbociclib] (partner 0.5 µM) : 0.511
O=c1cc(N2CCOCC2)oc2c(-c3cccc4c3sc3ccccc34)cccc12 + C[C@]1(O)C[C@@H](c2nc(-c3ccc4ccc(-c5ccccc5)nc4c3)c3c(N)nccn32)C1 [Linsitinib] (partner 1 µM) : 1.07
O=c1cc(N2CCOCC2)oc2c(-c3cccc4c3sc3ccccc34)cccc12 + CS(=O)(=O)N1CCN(Cc2cc3nc(-c4cccc5[nH]ncc45)nc(N4CCOCC4)c3s2)CC1 [Pictilisib] (partner 1 µM) : 0.642

Could you now look at the following compound, please?
Quick check: relative viability on NCI-H1651, item CCN(CC)CCCCNc1ncc2cc(-c3cc(OC)cc(OC)c3)c(NC(=O)NC(C)(C)C)nc2n1 + O=C(c1cc(Cc2n[nH]c(=O)c3ccccc23)ccc1F)N1CCN(C(=O)C2CC2)CC1 [Olaparib] (partner 8 µM) ?
0.192

====

Tested on: NCI-H661
Assay: relative viability (nuclei count vs DMSO), 5 days (fraction); higher = more cells survive
Conditions: first compound 0.8 µM
Assign labels as follows, please: y for relative viability below 0.8; n for relative viability equal to or exceeding 0.8.

Just wondering, is relative viability of COc1nc(C)cnc1NS(=O)(=O)c1cccnc1-c1ccc(-c2nnco2)cc1 [Zibotentan] + CC(=O)Nc1cccc(-n2c(=O)n(C3CC3)c(=O)c3c(Nc4ccc(I)cc4F)n(C)c(=O)c(C)c32)c1 [Trametinib] (partner 0.02 µM) below 0.8?
y

Just wondering, is relative viability of O=c1cc(-c2cccc3c2Sc2ccccc2S3)oc(N2CCOCC2)c1 + CC(=O)Nc1cccc(-n2c(=O)n(C3CC3)c(=O)c3c(Nc4ccc(I)cc4F)n(C)c(=O)c(C)c32)c1 [Trametinib] (partner 0.02 µM) below 0.8?
y

Just wondering, is relative viability of O=c1cc(-c2cccc3c2Sc2ccccc2S3)oc(N2CCOCC2)c1 + Nc1nc2[nH]cc(CCc3ccc(C(=O)N[C@@H](CCC(=O)O)C(=O)O)cc3)c2c(=O)[nH]1 [Pemetrexed] (partner 0.2 µM) below 0.8?
n

Just wondering, is relative viability of COc1nc(C)cnc1NS(=O)(=O)c1cccnc1-c1ccc(-c2nnco2)cc1 [Zibotentan] + COc1cccc2cc(-c3nc([C@H]4CC[C@H](C(=O)O)CC4)n4ncnc(N)c34)[nH]c12 [OSI-027] (partner 0.5 µM) below 0.8?
y

Just wondering, is relative viability of COc1nc(C)cnc1NS(=O)(=O)c1cccnc1-c1ccc(-c2nnco2)cc1 [Zibotentan] + Nc1nc2[nH]cc(CCc3ccc(C(=O)N[C@@H](CCC(=O)O)C(=O)O)cc3)c2c(=O)[nH]1 [Pemetrexed] (partner 0.2 µM) below 0.8?
n

Just wondering, is relative viability of O=c1cc(-c2cccc3c2Sc2ccccc2S3)oc(N2CCOCC2)c1 + CCNC(=O)c1noc(-c2cc(C(C)C)c(O)cc2O)c1-c1ccc(CN2CCOCC2)cc1 [Luminespib] (partner 0.01 µM) below 0.8?
n

Just wondering, is relative viability of O=c1cc(-c2cccc3c2Sc2ccccc2S3)oc(N2CCOCC2)c1 + COc1cccc2cc(-c3nc([C@H]4CC[C@H](C(=O)O)CC4)n4ncnc(N)c34)[nH]c12 [OSI-027] (partner 0.5 µM) below 0.8?
y

Just wondering, is relative viability of COc1nc(C)cnc1NS(=O)(=O)c1cccnc1-c1ccc(-c2nnco2)cc1 [Zibotentan] + CC(=O)c1c(C)c2cnc(Nc3ccc(N4CCNCC4)cn3)nc2n(C2CCCC2)c1=O [Palbociclib] (partner 0.5 µM) below 0.8?
y

Just wondering, is relative viability of O=c1cc(-c2cccc3c2Sc2ccccc2S3)oc(N2CCOCC2)c1 + C[C@@H](Oc1cc(-c2cnn(C3CCNCC3)c2)cnc1N)c1c(Cl)ccc(F)c1Cl [Crizotinib] (partner 1 µM) below 0.8?
n

Just wondering, is relative viability of COc1nc(C)cnc1NS(=O)(=O)c1cccnc1-c1ccc(-c2nnco2)cc1 [Zibotentan] + Nc1ncn([C@H]2C[C@H](O)[C@@H](CO)O2)c(=O)n1 [Decitabine] (partner 2 µM) below 0.8?
y

Just wondering, is relative viability of O=c1cc(-c2cccc3c2Sc2ccccc2S3)oc(N2CCOCC2)c1 + CC(C)C[C@H](NC(=O)[C@H](Cc1ccccc1)NC(=O)c1cnccn1)B(O)O [Bortezomib] (partner 0.002 µM) below 0.8?
n
